assay_target: Serine/threonine-protein kinase pim-1 (Homo sapiens, UniProt P11309)
protocol_description: Inhibition of PIM1 (unknown origin) assessed as reduction in BAD phosphorylation at Ser112 residues by TR-FRET assay
assay_readout: IC50 (nM)

1) NC(=O)c1cc(Cl)c2c(Cl)c(C3CC3)n(C3CCCNC3)c2n1 (racemic) ... 1

A = NC(=O)c1cc(Cl)c2c(Cl)c(I)n(CC3CCNCC3)c2n1
B = CN1CCN(c2ccc(-c3cc4c(Cl)cc(C(N)=O)nc4n3C)cc2)CC1
Q: // pick min by IC50: A , B Lab note: record the label of whichever item you select.
Ans: A

====

protocol_description: Protein binding in human plasma
Assay type: ADME, cell-free
stated_conditions: read-out: PPB
assay_readout: fraction unbound
Write the number on its own, no unit after it.

Q: For NC(=O)c1cc(Cl)c2c(Cl)c(C3CC3)n([C@H]3CCCNC3)c2n1 , what is its reported fraction unbound?
Ans: 0.01

====

protocol_description: Drug uptake in tumor of SCID mouse xenografted with human KG1 cells at 25 mg/kg, po administered as single dose measured at 24 hrs
Type: ADME, organism-based, Neoplasm
stated_conditions: read-out: Drug uptake
assay_readout: concentration at 24 h (µM)
Numeric only. Scale: µM

Q: Fill in the blank: the reported concentration at 24 h of NC(=O)c1cc(Cl)c2c(Cl)c(C3CC3)n([C@H]3CCCNC3)c2n1 is ____.
Ans: 99

====

protocol_description: Protein binding in mouse plasma
Assay type: ADME, cell-free
stated_conditions: read-out: PPB
assay_readout: fraction unbound
Note: the reply should be a number with no unit written.

Q: // lookup fraction unbound for NC(=O)c1cc(Cl)c2c(Cl)c(C3CC3)n([C@H]3CCCNC3)c2n1
Ans: 0.01

====

protocol_description: Half life in mouse at 10 mg/kg, po administered as single dose
Format: ADME, organism-based
stated_conditions: in vivo
assay_readout: half-life (h)

1. NC(=O)c1cc(Cl)c2c(Cl)c(C#CC3CC3)n(C3CCCNC3)c2n1 (racemic) ... 3.3

I = NC(=O)c1cc(Cl)c2c(Cl)c(C3CC3)n(C3CCCNC3)c2n1 (racemic)
II = NC(=O)c1cc(Cl)c2c(Cl)c(I)n(C3CCCNC3)c2n1 (racemic)
Q: Which gives the smaller half-life number: I or II ? Answer with the label corresponding to your selection.
Ans: II
(II: 2.3 h, I: 8.9 h)

====

protocol_description: Oral bioavailability in mouse at 10 mg/kg administered as single dose
Format: ADME, organism-based
stated_conditions: in vivo
assay_readout: bioavailability (%)
Provide only the numeric value, understood in %.

1) NC(=O)c1cc(Cl)c2c(Cl)c(I)n(C3CCCNC3)c2n1 (racemic) ... 54

As a next step, examine the molecule that follows.
Q: Requested read-out: bioavailability. Entry: NC(=O)c1cc(Cl)c2c(Cl)c(C#CC3CC3)n(C3CCCNC3)c2n1 (racemic)
Ans: 97

====

assay_target: Serine/threonine-protein kinase pim-1 (Homo sapiens)
protocol_description: Inhibition of PIM1 (unknown origin) assessed as reduction in BAD phosphorylation at Ser112 residues by TR-FRET assay
assay_readout: IC50 (nM)

As a guide, the following entries are already answered.
1. NC(=O)c1cc(Cl)c2c(Cl)c(I)n(C3CCC(O)CC3)c2n1 (stereo unspecified) ... 8
2. CSc1c(Cl)c2c(Cl)cc(C(N)=O)nc2n1C1CCCNC1 (stereo unspecified) ... 3
3. NC(=O)c1cc(Cl)c2c(Cl)c(I)n(C3CCCNC3)c2n1 (racemic) ... 1
4. NCC1CCC(n2c(I)c(Cl)c3c(Cl)cc(C(N)=O)nc32)CC1 (stereo unspecified) ... 3

P = NC(=O)c1cc(Cl)c2c(Cl)c(I)n(Cc3ccncc3)c2n1
Q = NC(=O)c1cc(Cl)c2c(Cl)c(C3=CCOCC3)n(C3CCCNC3)c2n1 (stereo unspecified)
Q: Given P and Q , report the one with the higher recorded IC50. Write down the label of the entry you select.
Ans: P
